Test system: RAW-Dual (murine macrophage reporter line)
assay info: viability score (confluency relative to resting cells, overnight) (fraction); higher = more viable, active = viable (0.7 or more)
condition context: modulator concentration 10 µM
Permitted responses: active, inactive

1. CC(NC(=O)COc1ccc(C=NNC(=O)c2ccccc2O)cc1)c1ccccc1 (stereo not given) = active
2. Cc1nccn1CC1CCc2c(c3ccccc3n2C)C1=O.Cl (stereo not given) = inactive
3. O=S1(=O)N=C(NN=Cc2ccccc2O)c2ccccc21 = active

Record lookup: outcome of this test for Br.O=S(=O)(c1ccc(-c2csc(Nc3ccc(Cl)cc3)n2)cc1)N1CCCC1 ?
active

Also check C=CC(=O)Nc1cccc(Nc2nc(Nc3ccc(N4CCN(C(C)=O)CC4)cc3OC)ncc2C(F)(F)F)c1
active

How about CC(=O)OCCN(CCOC(C)=O)c1c(C)[nH]c(=O)[nH]c1=O ?
active

Item: Cc1cc(-n2cc(C(=O)N3CCOCC3)nn2)ccc1F
active

How about this molecule: Cc1ccc(C(=O)NC(=S)Nc2nc(-c3cccc([N+](=O)[O-])c3)cs2)cc1C
active

Now the molecule Cc1ccc2c(c1)C1(c3ccccc3)Nc3ccc(C)cc3C1(c1ccccc1)N2 (stereo not given)
active

Moving on to CC12CC3CC(C)(C1)CC(N)(C3)C2.Cl
active

###

Recorded NF-kB reporter for the following compounds
System: RAW-Dual (murine macrophage reporter line)
assay info: NF-kB reporter (SEAP) activity fold change vs agonist alone; higher = enhanced NF-kB activity
condition context: modulator concentration 10 µM; agonist: CpG ODN 1826 0.5 ug/mL

Use these answered entries as a reference point.
1. Br.Fc1ccc(-c2csc(Nc3ccc4c(c3)OCO4)n2)cc1 = 0.871
2. COc1ccccc1C(=O)Nc1ccc(-c2nc3cc(C)ccc3o2)cc1 = 0.794
3. O=C(C=Cc1ccccc1)NC(NC(=S)Nc1ccc(Cl)cc1)C(Cl)(Cl)Cl (stereo unspecified) = 1.16
4. CC1CC(=CC=CN(C)C)C(=O)C(=CC=CN(C)C)C1 (stereo unspecified) = 1.04
5. CCC(C)(Oc1ccc(C2(c3ccc(OC(C)(CC)C(=O)O)cc3)CCCCC2)cc1)C(=O)O (stereo unspecified) = 1.14

Can you share its NF-kB reporter? I mean this compound: CCN(CC)c1ccc(C=NN2C(=O)c3ccccc3C2=O)cc1
1.05

###

Recorded NF-kB reporter values for a group of compounds are listed next.
Test system: RAW-Dual (murine macrophage reporter line)
assay info: NF-kB reporter (SEAP) activity fold change vs agonist alone; higher = enhanced NF-kB activity
condition context: modulator concentration 10 µM; agonist: LPS 0.1 ug/mL

Study these solved cases before continuing.
1) CCCCc1oc2ccccc2c1C(=O)c1cc(I)c(OCCN(CC)CC)c(I)c1 [Prestw-409] = 0.977
2) CCN1C(=O)C(=Cc2nc3ccccc3c(=O)n2-c2ccc(C)cc2)c2ccccc21 = 1.08
3) COc1ccc(C2SCc3cc(C)c(C)cc3CS2)cc1OC = 0.826

What measured NF-kB reporter is associated with Cc1cc(C)nc(NC#N)n1 on RAW-Dual (murine macrophage reporter line)?
0.966

Next entry: NS(=O)(=O)c1cc(Cl)c(Cl)c(S(N)(=O)=O)c1 [Prestw-809]
1.02

Please do the same for COc1ccc(C(=O)NCCOc2cc(C)cc(C)c2)cc1OC as well.
1

Then this compound: CC(C)c1nc(CN(C)C(=O)N[C@H](C(=O)N[C@@H](Cc2ccccc2)C[C@H](O)[C@H](Cc2ccccc2)NC(=O)OCc2cncs2)C(C)C)cs1
0.468

// next record Cc1ccc(S(=O)(=O)c2ccc(O)c(O)c2)cc1
1.02

Cool, now Cc1ccc(-n2c(C)cc(C=NNC(=O)CN3CCOCC3)c2C)c(C)c1
1.11

Next compound: Brc1ccc(-c2cc(-c3ccccc3)nc(N3CCCCC3)n2)cc1
1.1

Repeat for the following compound: CCN1CCN(S(=O)(=O)c2ccc(Oc3ccccc3)cc2)CC1
1.01

Another: CCC(=O)c1ccc(N2CCCCCC2)c(F)c1
0.96

Quick one: c1ccc2oc(SCCCCSc3nc4ccccc4o3)nc2c1
1.06

Then this compound: CCC(=O)N1c2ccccc2NC2=C(C(=O)CC(c3ccccc3F)C2)C1c1ccc(C)cc1 (stereo unspecified)
1.07

And then CC(C)(C)C(=O)OCOP(=O)(COCCn1cnc2c(N)ncnc21)OCOC(=O)C(C)(C)C , what is it?
1.36

Now the same for Cc1ccc(C=CC(=O)O)cc1S(=O)(=O)NCCO
0.884

What would you report for O=C(O[C@H]1C[C@H]2CC3C[C@@H](C1)N2CC3=O)c1c[nH]c2ccccc12 ?
0.598

###

As shown below, each of these molecules has a reported viability score value.
Tested on: RAW-Dual (murine macrophage reporter line)
assay info: viability score (confluency relative to resting cells, overnight) (fraction); higher = more viable, active = viable (0.7 or more)
condition context: modulator concentration 10 µM

Some solved entries appear below for comparison.
1) O=C(CSC1CCCCC1)Nc1ccc(Br)cc1 = 0.962 (active)
2) O=C1OC(CNS(=O)(=O)c2ccccc2Cl)CN1c1ccc(Cl)c(Cl)c1 (stereo unspecified) = 1.01 (active)
3) C=CCc1ccccc1OCC(O)CNC(C)C.Cl (stereo unspecified) = 0.978 (active)
4) Cc1cn(C2C=CC(CO)O2)c(=O)[nH]c1=O (stereo unspecified) = 0.984 (active)
5) Cc1ccc2[nH]c(=O)c(-c3cc(-c4ccccc4)c4ccccc4n3)c(-c3ccccc3)c2c1 = 1.02 (active)

Now for a further molecule.
Any idea what its viability score is? The molecule is COC(=O)CSc1nc(O)c2c(C)c(C)sc2n1
1.01 (active)

###

System: RAW-Dual (murine macrophage reporter line)
assay info: NF-kB reporter (SEAP) activity fold change vs agonist alone; higher = enhanced NF-kB activity
condition context: modulator concentration 10 µM; agonist: MPLA […]
assay endpoint: NF-kB reporter
API note: the answer field is a bare number with no unit suffix.

Please review the entries below; each comes with its answer.
1) Oc1ccc(O)cc1 = 0.377
2) O=C(N/N=C/c1ccc([N+](=O)[O-])o1)c1ccc(O)cc1 = 2.97
3) COc1ccc2ncc(S(=O)(=O)c3ccccc3)c(N3CCN(c4ccccc4)CC3)c2c1 = 1.14
4) COC(=O)Nc1nc2cc(S(=O)c3ccccc3)ccc2[nH]1 (centres undefined) [Prestw-1459] = 0.932
5) Cl.OC(CC#CCN1CCCC1)(c1ccccc1)c1ccccc1 = 0.967
6) C=C1C(=O)OC2CC3(C)CCCC(C)C3=CC12 (centres undefined) = 0.685
7) Fc1ccccc1C=NNc1nc(-c2ccccc2)cc(-c2ccccc2)n1 = 1.05
8) CN1CCN(C2=Nc3cc(Cl)ccc3Nc3ccccc32)CC1 = 1.13

Report NF-kB reporter for COC1(C)CCC2OC2(C)CCC2C1CC2(C)C (centres undefined) please.
1.04

And then COc1ccc(C=C(NC(=O)c2ccccc2)C(=O)NCCC(=O)OCc2ccccc2)cc1 , what is it?
0.875

Next record, please: O=C(Nc1cc(C(F)(F)F)cc(C(F)(F)F)c1)c1ccco1
1.02

And what about the compound COc1ccc(Cl)cc1S(=O)(=O)NCc1ccccn1 ?
0.986

Next record, please: Oc1c2c(nc3cc(-c4ccc(Br)cc4)nn13)CCS2
0.857

###

Entries and their IRF reporter
Tested on: RAW-Dual (murine macrophage reporter line)
assay info: IRF reporter (Lucia luciferase) activity fold change vs agonist alone; higher = enhanced IRF activity
condition context: modulator concentration 10 µM; agonist: LPS 0.1 ug/mL
Please reply with the number alone, leaving off any unit.

Past entries and their recorded results:
1. Cc1nc(Nc2ncc(C(=O)Nc3c(C)cccc3Cl)s2)cc(N2CCN(CCO)CC2)n1.O = 0.536
2. CN(c1ccccc1)c1nnc(C(C)(C)C)c(=O)[nH]1 = 0.908
3. CCOc1cc(CC(=O)N[C@@H](CC(C)C)c2ccccc2N2CCCCC2)ccc1C(=O)O = 1.22
4. Cc1noc(C)c1CN1CCC(C(F)(F)F)CC1.Cl = 1.32
5. Cc1cc(O)c(C(C)C)cc1NC(=O)c1cc(C(C)(C)C)oc1C = 0.998
6. COc1ccc(-c2cc(CNC(=O)C3CCC3)no2)cc1 = 1.06
7. Cc1cccc(OCCn2cc(C=Nn3cnnc3)c3ccccc32)c1 = 1.23
8. CCn1cc(C(=O)O)c(=O)c2cc(F)c(N3CCN(C)CC3)cc21.CS(=O)(=O)O.O.O = 1.37
9. Cc1ccc(Sc2ccccc2N2CCNCC2)c(C)c1 = 2.25
10. COC(CNC(=O)CSc1ccc(F)cc1)c1ccc(C)s1 (stereo not given) = 1.06

Which measured IRF reporter value corresponds to CC1=C(C(=O)OC2CCCCC2)C(c2ccc(N(C)C)cc2)C2=C(CC(C)(C)CC2=O)N1 (stereo not given) ?
0.943

How about Cc1ccc2c(c1)C1(c3ccccc3)Nc3ccc(C)cc3C1(c1ccccc1)N2 (stereo not given) ?
0.996

Now the molecule Cl.NC1=NCC2c3ccccc3Cc3ccccc3N12 (stereo not given)
0.982

Here is the next molecule: C=C(C)COc1ccc(-c2ncncc2-c2ccccc2)c(O)c1
1.14

Record: COc1ccc(C)c2sc(NC(=O)c3ccco3)nc12
0.845

And what about the molecule CCOc1ccc(S(=O)(=O)NC(C)(C)C)cc1C ?
1.38

Similarly, CCN(CC)CC(=O)Nc1c(C)cccc1C.Cl ?
0.927

Origin of measurements: the supplement of paper PMC10646978
